Tested on: 156681-154-R-J1-PDC complex spheroid viability
Protocol Details: Anticancer human tumor 156681-154-R-J1-PDC patient-derived melanoma cell line growth inhibition [CLK]; active = viability on the fitted dose curve at most 10% of control; inactive = the rest
Condition Details: second compound 10 µM; first compound 0.0316 µM
Give one outcome, nothing more. List: 1 for active, 0 for inactive

Illustrative cases are given below, each with its answer.
>  <Compound>
COc1c(OCCCN2CCOCC2)ccc2c3n(c(=NC(=O)c4cnc(N)nc4)nc12)CCN3 + CNC(=O)c1ccc(Nc2nc(OC3CCCC3)c3c(-c4ccc5nc(C)oc5c4)c[nH]c3n2)c(OC)c1

>  <Assigned Class>
0

$$$$
>  <Compound>
Nc1ccccc1NC(=O)c1ccc(CNC(=O)OCc2cccnc2)cc1 + CNC(=O)c1ccc(Nc2nc(OC3CCCC3)c3c(-c4ccc5nc(C)oc5c4)c[nH]c3n2)c(OC)c1

>  <Assigned Class>
0

$$$$
>  <Compound>
CC(=O)O[C@H]1C(=O)[C@@]2(C)[C@H]([C@H](OC(=O)c3ccccc3)[C@]3(O)C[C@H](OC(=O)[C@H](O)[C@@H](NC(=O)c4ccccc4)c4ccccc4)C(C)=C1C3(C)C)[C@]1(OC(C)=O)CO[C@@H]1C[C@@H]2O + CN1CCN(c2cc(C(=O)Nc3cc4cc(-c5cnn(C)c5)ccc4cn3)ccn2)CC1

>  <Assigned Class>
1

$$$$
>  <Compound>
CCN1CCN(Cc2ccc(Nc3ncc(F)c(-c4cc(F)c5nc(C)n(C(C)C)c5c4)n3)nc2)CC1 + CN1CCN(c2cc(C(=O)Nc3cc4cc(-c5cnn(C)c5)ccc4cn3)ccn2)CC1

>  <Assigned Class>
1

$$$$

Query string: Given Cn1ncnc1[C@H]1c2n[nH]c(=O)c3cc(F)cc(c23)N[C@@H]1c1ccc(F)cc1 + CNC(=O)c1ccc(Nc2nc(OC3CCCC3)c3c(-c4ccc5nc(C)oc5c4)c[nH]c3n2)c(OC)c1 , state the outcome it received in this test.
Result string: 0

###

Exercise: state measured viability, T/C for each of the molecules provided.
Test system: 156681-154-R-J1-PDC complex spheroid viability
Protocol Details: Anticancer human tumor 156681-154-R-J1-PDC cell line growth inhibition [CLK];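 note: spheroids exposed to the agents for seven days; 100% = DMSO vehicle control viability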
Condition Details: second compound 0.316 µM; first compound 0.316 µM; active compounds read low
Give bare numbers, in %.

Some molecules with known viability, T/C results, for comparison:
>  <Molecule>
C=C(F)C(=O)N1CCN(c2nc(OCC3CCCN3C)nc3c2CCN(c2cccc4cccc(Cl)c24)C3)CC1CC#N (stereo not given) + CNC(=O)c1ccc(Nc2nc(OC3CCCC3)c3c(-c4ccc5nc(C)oc5c4)c[nH]c3n2)c(OC)c1

>  <Tested Target>
156681-154-R-J1-PDC complex spheroid viability

>  <viability, T/C / %>
77.3

$$$$
>  <Molecule>
CCCS(=O)(=O)Nc1ccc(F)c(C(=O)c2c[nH]c3ncc(-c4ccc(Cl)cc4)cc23)c1F + CN1CCN(c2cc(C(=O)Nc3cc4cc(-c5cnn(C)c5)ccc4cn3)ccn2)CC1

>  <Tested Target>
156681-154-R-J1-PDC complex spheroid viability

>  <viability, T/C / %>
28.6

$$$$

Look up viability, T/C for the entries below, preserving their order.
1. COc1c(OCCCN2CCOCC2)ccc2c3n(c(=NC(=O)c4cnc(N)nc4)nc12)CCN3 + CN1CCN(c2cc(C(=O)Nc3cc4cc(-c5cnn(C)c5)ccc4cn3)ccn2)CC1
2. O=c1[nH]cc(F)c(=O)[nH]1 + CNC(=O)c1ccc(Nc2nc(OC3CCCC3)c3c(-c4ccc5nc(C)oc5c4)c[nH]c3n2)c(OC)c1
3. C=CC(=O)N1CCN(c2nc(=O)n(-c3c(C)ccnc3C(C)C)c3nc(-c4c(O)cccc4F)c(F)cc23)C(C)C1 (stereo not given) + CNC(=O)c1ccc(Nc2nc(OC3CCCC3)c3c(-c4ccc5nc(C)oc5c4)c[nH]c3n2)c(OC)c1

Result string:
1: 1.79; 2: 73.4; 3: 72.3
